molecular target: BIR3 domain of human XIAP (residues 252-350) (Homo sapiens (Human), UniProt P98170); test: XIAP in vitro competitive displacement binding assay (fluorescence polarization); details: 1 h; @ 0.04 μM; read-out: IC50 or PI Xiap: PI
Sequence (P98170 252-350): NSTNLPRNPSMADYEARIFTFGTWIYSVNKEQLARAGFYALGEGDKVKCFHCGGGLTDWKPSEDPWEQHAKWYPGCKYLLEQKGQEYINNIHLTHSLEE
Where a name gives a salt, the structure may show the parent alone.
measured.metric: inhibition at 0.04 µM (%)
Dear colleague, please return just the value in %, with no unit written.

Q: Which inhibition at 0.04 µM value belongs to CCCC(F)(F)c1cc2c(cn1)C(C)(C)CN2C(=O)CN1C[C@@H](C)NC[C@@H]1CN1CCOCC1 [Example 239, hydrochloride] ?
Ans: 52

Q: Moving on to C[C@@H]1CN(CC(=O)N2CC(C)(C)c3cnc(C(F)(F)c4ccccc4)cc32)[C@@H](Cn2cc(F)cn2)CN1 [Example 176, hydrochloride]
Ans: 52

Q: Moving on to C[C@@H]1CN(CC(=O)N2CC(C)(C)c3cnc(Oc4ccccc4Cl)cc32)[C@@H](CN2CCCC2=O)CN1 [Example 182, hydrochloride]
Ans: 73
